- target-of-assay: urease in intact H. pylori cell (Helicobacter pylori, UniProt P69996)
- Construct: H. pylori urease was replaced by 25 µL of cell suspension (4.0 × 10^7 CFU/mL); endogenous in cells; host or cells: intact H. pylori ATCC 43504 cells
- Sequence (P69996 whole entry): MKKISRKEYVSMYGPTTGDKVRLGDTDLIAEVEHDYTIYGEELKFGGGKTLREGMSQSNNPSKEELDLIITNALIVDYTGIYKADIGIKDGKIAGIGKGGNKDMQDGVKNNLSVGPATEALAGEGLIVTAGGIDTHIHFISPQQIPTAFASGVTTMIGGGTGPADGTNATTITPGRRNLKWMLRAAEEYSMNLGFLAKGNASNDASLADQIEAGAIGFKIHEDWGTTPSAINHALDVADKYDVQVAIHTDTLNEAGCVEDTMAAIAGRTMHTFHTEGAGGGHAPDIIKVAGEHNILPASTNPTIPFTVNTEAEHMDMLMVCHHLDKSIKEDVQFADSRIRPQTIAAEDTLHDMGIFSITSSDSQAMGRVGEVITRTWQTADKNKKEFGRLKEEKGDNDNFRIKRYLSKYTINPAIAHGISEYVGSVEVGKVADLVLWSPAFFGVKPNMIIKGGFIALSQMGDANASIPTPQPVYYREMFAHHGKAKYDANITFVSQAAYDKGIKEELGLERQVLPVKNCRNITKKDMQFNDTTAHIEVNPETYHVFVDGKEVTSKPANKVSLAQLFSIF
- Sequence (P14916 whole entry, further chain): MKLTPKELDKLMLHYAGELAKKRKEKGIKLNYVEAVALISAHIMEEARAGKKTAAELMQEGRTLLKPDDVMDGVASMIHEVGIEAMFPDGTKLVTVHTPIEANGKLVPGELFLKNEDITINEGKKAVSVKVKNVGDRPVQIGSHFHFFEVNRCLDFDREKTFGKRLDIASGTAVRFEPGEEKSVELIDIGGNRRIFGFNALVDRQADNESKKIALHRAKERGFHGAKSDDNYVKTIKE
- protocol-text: Urease inhibition in intact H. pylori cell (indophenol method)
- Type: cell-based
Form field: pIC50 (one value per entry).
Remember, pIC50 is on a log scale: it is -log10 of the molar concentration.

Worked cases, pIC50 given:
• NC(=S)NC(=O)Cc1ccc(O)cc1 = 4.28
• COc1ccc(CC(=O)NC(N)=S)cc1OC = 3.68

[Q] Entry under review: "NC(=S)NC(=O)Cc1ccc(O)c(O)c1" . Reported pIC50?
[A] 3.84
